The listing below reports IC50 for molecules tested on Plasmodium vivax (Pv) NMT (Plasmodium vivax (strain Salvador I)).
# unit: µM | format: bare number

molecule | measurement
CN(C)CCNc1ncc(Cl)c(N2CC(C(=O)NCc3ccc(F)cc3F)C2)n1 [Comparative Example 2] | 2

We next turn to a different molecule, shown below.
Inquiry: Name the recorded IC50 for Cc1cnc(CNC(=O)C2CN(c3nc(NCCN(C)C)ncc3Cl)C2)cn1 [Comparative Example 1, reference compound] .
Reply text: 8.4

----------
Tested on: Plasmodium falciparum 3D7
test-details: SYBR Green assay, Plasmodium falciparum strain 3D7
Format: cell-based
stated-conditions: P. falciparum strain 3D7, 96 h incubation, read-out: Pf EC50 strain 3D7
assay-endpoint: pEC50
# log scale: pEC50 equals minus log10 of the concentration in mol/L

compound | assay-endpoint | measurement
CN1CCN(c2ncc(F)c(N3CC(C(=O)NC(C)(C)c4cnc5ccccn45)C3)n2)CC1 | pEC50 | 6.80
CC1CNCCN1c1ncc(Cl)c(N2CC(C(=O)N(C)C(C)(C)c3cnc4ccccn34)C2)n1 (stereo not shown) | pEC50 | 7.59
Cc1ccc2ncc(C(C)(C)NC(=O)C3CN(c4nc(N5CCN(C)CC5)ncc4Cl)C3)n2c1 | pEC50 | 6.92
COc1cnc(N2C[C@@H](C)N(C)[C@@H](C)C2)nc1N1CC(C(=O)NC(C)(C)c2cnc3ccccn23)C1 | pEC50 | 7.12
O=C(NCc1cnc2cc(F)ccn12)C1CN(c2nc(N3CCCNCC3)ncc2Cl)C1 | pEC50 | 6.10
CN1CCN(c2ncc(Cl)c(N3CC(C(=O)NC(C)(C)c4cnc5ccccn45)C3)n2)CC1 | pEC50 | 7.19
C[C@@H]1CN(c2ncc(F)c(N3CC(C(=O)NC(C)(C)c4cnc5ccccn45)C3)n2)C[C@@H](C)N1C | pEC50 | 6.07
CC(C)(NC(=O)C1CN(c2nc(N3CCNCC3)ncc2F)C1)c1cnc2ccccn12 | pEC50 | 7.19
C[C@H]1CN(c2ncc(F)c(N3CC(C(=O)NC(C)(C)c4cnc5ccccn45)C3)n2)CCN1C | pEC50 | 7.03
COc1cnc(N2CCN(C)CC2)nc1N1CC(C(=O)NC(C)(C)c2cnc3ccccn23)C1 | pEC50 | 6.74

Inquiry: Name the recorded pEC50 for CC(C)(NC(=O)C1CN(c2nc(N3CCCNCC3)ncc2Cl)C1)c1cnc2ccccn12 .
Reply text: 7.55

Inquiry: Name the recorded pEC50 for COc1cnc(N2C[C@@H](C)N(C)[C@H](C)C2)nc1N1CC(C(=O)NC(C)(C)c2cnc3ccccn23)C1 .
Reply text: 6.64

Inquiry: Name the recorded pEC50 for O=C(NCc1cnc2ccccn12)C1CN(c2nc(N3CCCNCC3)ncc2Cl)C1 .
Reply text: 5.60

Inquiry: Name the recorded pEC50 for C[C@@H]1CN(c2ncc(F)c(N3CCC(C(=O)NC(C)(C)c4cnc5ccccn45)C3)n2)CCN1C (stereo partly shown) .
Reply text: 6.70

Inquiry: Name the recorded pEC50 for C[C@H]1CN(C)CCN1c1ncc(F)c(N2CC(C(=O)N(C)C(C)(C)c3cnc4ccccn34)C2)n1 .
Reply text: 6.70

Inquiry: Name the recorded pEC50 for C[C@@H]1CN(c2ncc(F)c(N3CC(C(=O)NC(C)(C)c4cnc5ccccn45)C3)n2)CCN1C .
Reply text: 7.47

Inquiry: Name the recorded pEC50 for CC(C)(NC(=O)C1CN(c2nc(N3CCCNCC3)ncc2F)C1)c1cnc2ccccn12 .
Reply text: 7.29

Inquiry: Name the recorded pEC50 for CC(C)(NC(=O)C1CN(c2nc(N3CCNCC3)ncc2Cl)C1)c1cnc2ccccn12 .
Reply text: 7.74

Inquiry: Name the recorded pEC50 for CC1CN(c2ncc(Cl)c(N3CC(C(=O)NCc4cnc5ccccn45)C3)n2)CCN1 (stereo not shown) .
Reply text: 6.21

Inquiry: Name the recorded pEC50 for C[C@@H]1CN(c2ncc(Cl)c(N3CC(C(=O)NC(C)(C)c4cnc5ccccn45)C3)n2)C[C@H](C)N1C .
Reply text: 7.06

Inquiry: Name the recorded pEC50 for CN(c1ncc(F)c(N2CC(C(=O)NC(C)(C)c3cnc4ccccn34)C2)n1)C1CCNC1 (stereo not shown) .
Reply text: 6.60

----------
Tested on: BL-41 cells
test-details: CellTiter-Blue assay, BL-41
Format: cell-based
stated-conditions: Homo sapiens, BL41 cell line, 72 hours
Recorded EC50 for the following compounds
# unit: nM | format: bare number

smiles-string | target-desc | measurement
C[C@@H]1CN(c2ncc(Cl)c(N3CC(C(=O)NC(C)(C)c4cnc5ccccn45)C3)n2)CCN1C | BL-41 cells | 218

We next turn to a different compound, shown below.
Inquiry: Name the recorded EC50 for C[C@H]1CN(C)CCN1c1ncc(Cl)c(N2CC(C(=O)NC(C)(C)c3cnc4ccccn34)C2)n1 .
Reply text: 557

----------
Recorded IC50 for the following compounds
target-desc: Plasmodium vivax (Pv) NMT (Plasmodium vivax (strain Salvador I), UniProt A5K1A2)
Sequence (A5K1A2 1-410): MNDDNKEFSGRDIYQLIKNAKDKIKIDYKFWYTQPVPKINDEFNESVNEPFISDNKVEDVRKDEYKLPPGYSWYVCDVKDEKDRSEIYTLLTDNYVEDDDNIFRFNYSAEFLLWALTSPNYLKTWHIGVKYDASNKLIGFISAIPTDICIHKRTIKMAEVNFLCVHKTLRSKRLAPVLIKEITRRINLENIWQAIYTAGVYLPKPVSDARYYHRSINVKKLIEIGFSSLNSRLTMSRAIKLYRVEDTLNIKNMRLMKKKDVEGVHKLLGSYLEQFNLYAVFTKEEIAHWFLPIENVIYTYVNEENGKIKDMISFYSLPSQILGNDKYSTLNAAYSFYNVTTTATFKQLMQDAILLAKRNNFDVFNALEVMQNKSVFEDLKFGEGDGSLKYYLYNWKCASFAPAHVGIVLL
test-details: biochemical
# unit: nM | format: bare number

Inquiry: Name the recorded IC50 for C[C@H]1CN(c2ncc(F)c(N3CC(C(=O)NCc4cnc5ccccn45)C3)n2)CCN1 [Example 26] .
Reply text: 240

----------
Test system: Plasmodium falciparum 3D7
test-details: SYBR Green assay, Plasmodium falciparum strain 3D7
Assay type: cell-based
stated-conditions: P. falciparum strain 3D7, 96 h incubation, read-out: Pf EC50 strain 3D7
Our labelling divides records by EC50 into ranges: lo: < 60 nM; med: ≥ 60 nM and < 300 nM; hi: ≥ 300 nM

molecule | group-label
COc1cnc(N2CCNCC2)nc1N1CC(C(=O)NC(C)(C)c2cnc3ccccn23)C1 | med

Query molecule follows.
Inquiry: Please indicate the class for CCN1CCN(c2ncc(Cl)c(N3CC(C(=O)NC(C)(C)c4cnc5ccccn45)C3)n2)CC1 based on its EC50.
Reply text: hi

----------
target-desc: Plasmodium vivax (Pv) NMT (Plasmodium vivax (strain Salvador I))
test-details: biochemical
Recorded pIC50 for the following compounds
# log scale: pIC50 equals minus log10 of the concentration in mol/L

Recorded results for 2 compounds are shown here.
compound | measurement
O=C(NCc1cnc2ccccn12)C1CN(c2nc(N3CC4CNC4C3)ncc2Cl)C1 (stereo not shown) [Example 7] | 7.40
C[C@@H]1CN(c2ncc(F)c(N3CC(C(=O)N(C)C(C)(C)c4cnc5ccccn45)C3)n2)CCN1C [Example 102] | 7.62

Inquiry: Name the recorded pIC50 for CN(c1ncc(Cl)c(N2CC(C(=O)NC(C)(C)c3cnc4ccccn34)C2)n1)C1CCNC1 (stereo not shown) [Example 41] .
Reply text: 8.14

Inquiry: Name the recorded pIC50 for C[C@@H]1CN(c2ncc(Cl)c(N3CC(C(=O)NC(C)(C)c4cnc5ccccn45)C3)n2)C[C@H](C)N1C [Example 89] .
Reply text: 7.92

Inquiry: Name the recorded pIC50 for COc1cnc(N2CCCNCC2)nc1N1CC(C(=O)NCc2cnc3ccccn23)C1 [Example 19] .
Reply text: 7.23

Inquiry: Name the recorded pIC50 for Cc1nc2ccccn2c1CNC(=O)C1CN(c2nc(N3CC4CNC4C3)ncc2F)C1 (stereo not shown) [Example 13] .
Reply text: 6.18

Inquiry: Name the recorded pIC50 for C[C@@H]1CN(c2ncc(F)c(N3CC(C)(C(=O)NC(C)(C)c4cnc5ccccn45)C3)n2)CCN1C [Example 87] .
Reply text: 7.42

Inquiry: Name the recorded pIC50 for COc1cnc(N2CCCNCC2)nc1N1CC(C(=O)NC(C)c2c(C)nc3ccccn23)C1 (stereo not shown) [Example 23] .
Reply text: 7.52

Inquiry: Name the recorded pIC50 for O=C(NCc1cnc2ccccn12)C1CN(c2nc(N3CCNCC3)ncc2Cl)C1 [Example 25] .
Reply text: 7.82

Inquiry: Name the recorded pIC50 for CC1CN(c2ncc(F)c(N3CC(C(=O)NC(C)(C)c4cnc5ccccn45)C3)n2)C[C@H](C)N1C (stereo partly shown) [Example 96] .
Reply text: 6.89

Inquiry: Name the recorded pIC50 for Cc1nc2ccccn2c1CNC(=O)C1CN(c2nc(N3CCCNCC3)ncc2F)C1 [Example 12] .
Reply text: 6.70

----------
test-details: in vitro
stated-conditions: male, Sprague-Dawley, rat, pooled cryopreserved rat hepatocytes, pH 7.4
Recorded half-life at 1 µM for the following compounds
# unit: h | format: bare number

Recorded results for 5 compounds are shown here.
compound | assay-endpoint | measurement
CN1CCN(c2ncc(Cl)c(N3CCC(C(=O)NC(C)(C)c4cnc5ccccn45)CC3)n2)CC1 | half-life at 1 µM | 1.49
COCC1CN(c2ncc(Cl)c(N3CC(C(=O)NC(C)(C)c4cnc5ccccn45)C3)n2)CCN1C (stereo not drawn) | half-life at 1 µM | 0.743
CN1CCCN(c2ncc(Cl)c(N3CC(C(=O)NCc4cnc5ccccn45)C3)n2)CC1 | half-life at 1 µM | 0.4
C[C@H]1CN(c2ncc(Cl)c(N3CC(C(=O)NC(C)(C)c4cnc5ccccn45)C3)n2)C[C@H](C)N1C | half-life at 1 µM | 1.51
C[C@H]1CN(C)CCN1c1ncc(Cl)c(N2CC(C(=O)NC(C)(C)c3cnc4ccccn34)C2)n1 | half-life at 1 µM | 1.52

We next turn to a different compound, shown below.
Inquiry: Name the recorded half-life at 1 µM for CN1CCCN(c2ncc(Cl)c(N3CC(C(=O)NC(C)(C)c4cnc5ccccn45)C3)n2)CC1 .
Reply text: 2.52
